Conditions: pampa; pH 5.0; 30.0 min; 50.0 µM
MEASUREMENT NAME: Papp

CCN(CC)C(=O)N1c2ccccc2C=Cc2ccccc21
> 1000 ×10⁻⁶ cm/s
COc1ccc(-n2nc(C)c([C@@H]3C=C[C@@H](NCc4ccc(N(C)C)cc4)C3)c2C)cc1
> 1000 ×10⁻⁶ cm/s
CC(C)n1cc(-c2ccc3c(c2)N(C)CC3)c2c(NS(=O)(=O)c3ccn(C)n3)ccnc21
> 1000 ×10⁻⁶ cm/s
CN1CCCC(CC2c3ccccc3Sc3ccccc32)C1 (centres undefined)
> 1000 ×10⁻⁶ cm/s

Ask | Returns the measured Papp for the input compound. Input: C=CCc1ccc(O)c(-c2ccc(O)c(CC=C)c2)c1
Reply | 446 ×10⁻⁶ cm/s

Ask | Query (compound): Nc1c(-c2ccccc2)cc[nH]c1=O ; field requested: Papp
Reply | 76.8 ×10⁻⁶ cm/s

Ask | // lookup Papp for CCOc1ccc(N2CC(c3nc(-c4cc(OC)c(OC)c(OC)c4)no3)CC2=O)cc1 (centres undefined)
Reply | > 1000 ×10⁻⁶ cm/s

Ask | Fill blank: measured Papp of the compound Cc1c(C)n(Cc2ccccc2)c2ccc(C(=O)OCCN(C)C)cc12 is ____.
Reply | > 1000 ×10⁻⁶ cm/s

Ask | Bench note: what Papp did Cn1cnc2c(F)c(Nc3ccc(Br)cc3Cl)c(C(=O)NOCCO)cc21 show?
Reply | 151 ×10⁻⁶ cm/s

----------
Conditions: pampa; pH 5.0; 30.0 min; 50.0 µM
Catalogue of molecules with associated Papp
Give the value in ×10⁻⁶ cm/s but do not write ×10⁻⁶ cm/s after it.

The examples below pair each entry with its known result.
Cc1noc([C@@H]2CN(C(=O)c3nn(C)c4ccccc34)C[C@H]2CO)n1
91.5
CCOc1ccc(C2C(C(=O)Nc3ccccc3OC)=C(C)Nc3c(C(=O)Nc4cccc(C)c4)cnn32)cc1 (stereo not drawn)
170
Fc1cccc(CN2CCNc3cc(Nc4ccccc4)ncc3C2)c1
5.74
Cc1c(CN(C)c2cc(C3CC(O)C3)nc(N)n2)[nH]c2ccccc12 (stereo not drawn)
44.8
COc1ccc(CNC(=O)CCCn2nc(C)c3c(C)n(-c4ccc(C)cc4)nc3c2=O)cc1OC
159

Ask | Sample COc1cc2c(c(OC)c1OC)-c1ccc(OC)c(=O)cc1[C@@H](NC(C)=O)CC2 — what was its Papp?
Reply | 4.51

Ask | Need Papp, item Cc1cccc(-n2ncc3c2CCCC3NC(=O)c2c(F)ccc(F)c2F)c1C (stereo not drawn)
Reply | 552

Ask | What does the data say about its Papp? Entry: CN(C)c1ccc(CN2CCNc3cc(Nc4ccccc4)ncc3C2)cc1
Reply | 107

----------
Conditions: pampa; pH 5.0; 30.0 min; 50.0 µM
Listed here: items and their measured Papp.
Please state the figure in ×10⁻⁶ cm/s; there is no need to write the unit.

Cn1nnnc1Sc1ncnc2scc(-c3cc4ccccc4o3)c12
52.8
COc1ccc(CN2CCNc3cc(Nc4ccccc4)ncc3C2)cc1O
3.07
COc1ccc(N(C)C(=O)c2cc3c(s2)-c2ccccc2OC3)cc1
963
O=C(c1ccccc1)N1CCC(c2nn(-c3ccc(F)cc3)c(=O)[nH]2)CC1
521

Ask | // returns reported Papp for input COC(=O)c1cccc(NC(=O)c2cnc(-c3ccc(F)cc3)nc2-c2ccncc2)c1
Reply | 671

Ask | // query Papp value for entry CCOC(=O)Nc1ccc(NCc2ccc(F)cc2)nc1N
Reply | 142

Ask | Can you share its Papp? I mean this molecule: COc1ccc(C(=O)NC2CCCc3c2[nH]c2c(Cl)cccc32)cc1OC (stereo not drawn)
Reply | 483

Ask | Any idea what Papp was measured for COc1ccc(-c2[nH]nc3ncc(-c4ccc(CO)cc4)nc23)cc1F ?
Reply | 428

Ask | // returns reported Papp for input Cc1ccc(C(=O)N2CCc3c(nc4cc(-c5ccccc5)[nH]n4c3=O)C2)cn1
Reply | 1.2

Ask | Tell me the measured Papp of CCC(CC)c1cc([C@H]2CN3CC[C@H]2C[C@@H]3CNC(C)=O)nc(-c2ccncc2)n1 , please.
Reply | 14.9

Ask | Consider the molecule shown here: Fc1ccc(CNc2cc3c(cn2)CN(Cc2ccncc2)CCN3)cc1 What is its recorded Papp?
Reply | 14.3

Ask | Given the molecule CCc1ccc(-n2nc(C)c3c2NC(=O)CSC3c2ccccc2C)cc1 (stereo not drawn) , what is its reported Papp?
Reply | 707
